# Test system: NCI/ADR-RES ovarian
# ASSAY OVERVIEW: NCI tumour cell line growth inhibition, 48 h
READOUT TYPE: TGI (µM)
Could you give me the number in µM? Just the number is fine.

Worked examples follow.
MOLECULE | TGI / µM
CCCCCCCCCCCCCCCCCCOCC(COP(=O)([O-])OCC[N+](C)(C)C)OC (stereo unspecified) | 64.1
CC(C)C1CC[C@H](C)C[C@@H]1OC(=O)C(C(=O)O[C@H]1C[C@@H](C)CCC1C(C)C)C(O)[C@@H]1OC(C)(C)O[C@H]1C1COC(C)(C)O1 (stereo partly specified) | 45.4
OCc1ccc(N(CCN2CCCC2)Cc2ccc(F)cc2)cc1Cl | 44.3
COc1ccc(N(/C=C/C(=O)C(F)(F)F)CC(=O)c2ccc(Cl)c(Cl)c2)cc1 | 39.3
O=[N+]([O-])c1ccc2nc3ccccc3cc2c1 | 3.47

Shift focus to the following entry.
O=C(COc1cccc(/C=C2\CSc3ccccc3C2=O)c1)c1ccc(Cl)cc1 yielded TGI of 7.33

---

# System: NCI/ADR-RES ovarian
# ASSAY OVERVIEW: NCI tumour cell line growth inhibition, 48 h
READOUT TYPE: TGI

MOLECULE | OBS VALUE
CN1CCN(c2ccc(C(=O)Nc3cc(-c4cccc(NS(=O)(=O)c5ccccc5)c4)[nH]n3)cc2)CC1 | > 100 µM
Clc1ccc(Nc2ccnc(NCCCNc3ccnc4cc(Cl)ccc34)n2)cc1 | 3.38 µM
O=C(O)C1CCCCC1c1c2ccc(=O)cc-2oc2cc(O)ccc12 (centres undefined) | > 100 µM
c1ccc2c(c1)CC1COc3ccccc3C1O2 (centres undefined) | > 100 µM
NC1CCC(N[C@@H]2C[C@H]2c2ccccc2)CC1 (some centres undefined) | > 100 µM

CC(=O)NC(Cc1ccc(OP(=O)(OCc2ccc([N+](=O)[O-])o2)N(C)CCCCCl)cc1)C(=O)NC(C)c1ccc(OCC2CCCCC2)c(C(N)=O)c1 (centres undefined) yielded TGI of > 100 µM

CC(=O)/C=C(\O)c1[nH]c(C(=O)O)cc1C1CCN(Cc2ccccc2)C1=O (centres undefined) yielded TGI of 28.9 µM

CCOC(=O)Nc1nc2c(C)cccc2s1 yielded TGI of > 100 µM

O=C(N/N=C\c1ccccc1)Nc1cccc2ccccc12 yielded TGI of > 100 µM

---

A short record of GI50 observed with NCI-H460 lung follows.

Assay NCI-H460 lung, sample Cc1[nH]nc2c1N=C(c1ccccc1Cl)c1cc([N+](=O)[O-])ccc1N2 , GI50 read: 0.484 µM

Assay NCI-H460 lung, sample C=C1C[C@@]2(C)C(CC[C@]3(C)C2CC=C2C4CC(C)(C)C[C@@H](OC(=O)/C(C)=C\C)[C@]4(C(=O)O)CC[C@]23C)C(C)(C)C1=O (stereo partly drawn) , GI50 read: 3.22 µM

Assay NCI-H460 lung, sample CCOC(=O)Nc1nc2c(C)cccc2s1 , GI50 read: 70.8 µM

Assay NCI-H460 lung, sample COc1ccc(N(/C=C/C(=O)C(F)(F)F)CC(=O)c2ccc(Cl)c(Cl)c2)cc1 , GI50 read: 6.73 µM

Assay NCI-H460 lung, sample O=C(Nc1ccccc1)Nc1cccc(Oc2nnc(Cl)c3ccccc23)c1 , GI50 read: 2.67 µM

// provenance: PubChem BioAssay (NCI)
